target: TEAD2 (Homo sapiens (Human)); experiment: In vitro palmitoylation (TEAD2 autopalmitoylation, streptavidin blot); assay type: biochemical; details: compound at 10 μM; Table 2
Sequence (Q15562 whole entry): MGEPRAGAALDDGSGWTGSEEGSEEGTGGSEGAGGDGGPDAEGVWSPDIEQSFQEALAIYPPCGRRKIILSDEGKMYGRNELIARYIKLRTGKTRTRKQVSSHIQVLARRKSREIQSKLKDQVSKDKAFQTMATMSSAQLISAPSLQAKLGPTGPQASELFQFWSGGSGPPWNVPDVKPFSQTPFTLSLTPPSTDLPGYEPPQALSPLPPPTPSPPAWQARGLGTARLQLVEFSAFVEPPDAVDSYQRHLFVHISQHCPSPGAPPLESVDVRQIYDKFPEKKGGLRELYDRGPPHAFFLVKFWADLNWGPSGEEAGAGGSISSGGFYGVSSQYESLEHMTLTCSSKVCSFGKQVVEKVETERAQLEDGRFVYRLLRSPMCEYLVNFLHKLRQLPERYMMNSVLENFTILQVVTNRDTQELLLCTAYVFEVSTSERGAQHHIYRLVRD
property measured: inhibition at 10 µM
Please answer using the number first and the unit second.

compound	system under test	property measured	result
O=C(Nc1ccccc1C(=O)O)c1cccc(Nc2ccc(C34CC5CC(CC(C5)C3)C4)cc2)c1 [Compound 239]	TEAD2 (Homo sapiens (Human))	inhibition at 10 µM	98%
O=C(O)C1CCCC1Nc1cc(Nc2ccc(C34CC5CC(CC(C5)C3)C4)cc2Cl)cc(C(F)(F)F)c1 (stereo not shown) [Compound 64]	TEAD2 (Homo sapiens (Human))	inhibition at 10 µM	0%
Cc1ccccc1Nc1ccc(Nc2ccc(C34CC5CC(CC(C5)C3)C4)cc2)cc1 [Compound 13]	TEAD2 (Homo sapiens (Human))	inhibition at 10 µM	26%
O=C(O)[C@@H]1CCCN1C(=O)c1ccc(Nc2ccc(C34CC5CC(CC(C5)C3)C4)cc2Cl)cc1 [Compound 48]	TEAD2 (Homo sapiens (Human))	inhibition at 10 µM	87%
O=C(Nc1ccc(C23CC4CC(CC(C4)C2)C3)cc1Cl)c1ccc(Nc2ccccc2C(=O)O)cc1 [Compound 37]	TEAD2 (Homo sapiens (Human))	inhibition at 10 µM	30%
CN(c1ccc(C23CC4CC(CC(C4)C2)C3)cc1)S(=O)(=O)c1ccc(Nc2ncccc2C(=O)O)cc1 [Compound 207]	TEAD2 (Homo sapiens (Human))	inhibition at 10 µM	99%

Consider the additional compound presented here.
Input line: // inhibition at 10 µM lookup, key: CN(c1cnn(Cc2ccc(C34CC5CC(CC(C5)C3)C4)cc2Cl)c1)c1ncccc1C(=O)O [Compound 133]
Output line: 93%

###

target: TEAD2 (Homo sapiens (Human)); test: CMP assay (CPM fluorescence detection of free CoA); format: biochemical; details: Table 3; unit inferred; read-out: TEAD2 palmitoylation IC50
property measured: pIC50
// pIC50 is dimensionless: -log10 of concentration (M)

Consider the following illustrative entries.
compound	system under test	pIC50
COc1ccc(Nc2ccc(N(C)c3ccc(OCC(F)(F)F)cc3)cc2)c(C(=O)O)c1	TEAD2 (Homo sapiens (Human))	6.23
COc1ccc(Nc2ccc(N(C)c3ccc(C4CCC(C)CC4)cc3)cc2)c(C(=O)O)c1 (centres unmarked) [CP-584]	TEAD2 (Homo sapiens (Human))	6.68

Input line: // pIC50 lookup, key: "COc1ccc(Nc2ccc(N(C)c3ccc(OC(F)(F)F)cc3)cc2)c(C(=O)O)c1"
Output line: 6.35

Input line: // pIC50 lookup, key: "COc1ccc(Nc2ccc(N(C)c3ccc(C4CCCCC4)cc3)cc2)c(C(=O)O)c1"
Output line: 5.82

Input line: // pIC50 lookup, key: COc1ccc(Nc2ccc(N(C)c3ccc(C4CCC(C)CC4)cc3)cc2)c(C(=O)O)c1 (centres unmarked) [CP-583]
Output line: 6.64

Input line: // pIC50 lookup, key: COc1ccc(Nc2ccc(N(C)c3ccc(C4CC5CCC4C5)cc3)cc2)c(C(=O)O)c1 (centres unmarked)
Output line: 6.17

Input line: // pIC50 lookup, key: "COc1ccc(Nc2ccc(N(C)c3ccc(OC(F)(F)F)cc3)cc2C)c(C(=O)O)c1"
Output line: 6.66

Input line: // pIC50 lookup, key: "COc1ccc(Nc2ccc(N(C)c3ccc(S(F)(F)(F)(F)F)cc3)cc2C)c(C(=O)O)c1"
Output line: 6.44
